- TEST_SYSTEM: T1, PD1-hFc (human, UniProt Q15116 25-170)
- T1 construct: extracellular domain; also called PD1-hFc protein; Human PD-1-Fc (S1420, Y-Biologics)
- EXPERIMENT_SUMMARY: competition ELISA: PD1-Fc coated, PDL1-His as binder, antibody as competitor
pIC50: −log10 of the molar value.

- BINDER: "PD1-45D6 (antibody, V domains shown, scFv-phage in the screening ELISA; whole IgG in the other assays) VH: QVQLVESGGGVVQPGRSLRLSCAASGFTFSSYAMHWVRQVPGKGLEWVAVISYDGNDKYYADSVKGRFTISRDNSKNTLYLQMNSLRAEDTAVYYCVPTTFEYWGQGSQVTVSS VL: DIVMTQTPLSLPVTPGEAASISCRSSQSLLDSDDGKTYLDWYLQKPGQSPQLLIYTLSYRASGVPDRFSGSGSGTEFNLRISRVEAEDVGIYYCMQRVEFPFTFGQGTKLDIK"
  pIC50: 8.43

Entry source: patent US20190248900A1
